Test system: Streptococcus pneumoniae
Assay: Antibacterial activity against 10^4 CFU Streptococcus pneumoniae 08-4 after 18 hrs by CLSI agar dilution method
Type: functional
Conditions: 08-4, 18 h
For each record, write down the corresponding MIC.
Numbers only, in µg/mL.

Some compounds with recorded MIC:
[[record]]
compound = "CO/N=C1\\CN(c2c(F)cc3c(=O)c(C(=O)O)cn(C4CC4)c3c2OC(F)F)CCC1(C)N (configuration not stated)"
endpoint_result = 0.25

[[record]]
compound = "CCO/N=C1\\CN(c2c(F)cc3c(=O)c(C(=O)O)cn4c3c2OC[C@@H]4C)CCC1(C)N (some centres not stated)"
endpoint_result = 2

[[record]]
compound = "CCO/N=C1\\CN(c2nc3c(cc2F)c(=O)c(C(=O)O)cn3-c2ccc(F)cc2F)CCC1(C)N (configuration not stated)"
endpoint_result = 0.25


For every item below, please supply its MIC.
1. CO/N=C1\CN(c2c(F)cc3c(=O)c(C(=O)O)cn(CCF)c3c2F)CCC1(C)N (configuration not stated)
2. COc1c(N2CCNC(C)C2)c(F)cc2c(=O)c(C(=O)O)cn(C3CC3)c12 (configuration not stated)

[reply]
1. 2
2. 0.25

Batch: MIC for all items listed.
1. CO/N=C1\CN(c2c(F)cc3c(=O)c(C(=O)O)cn(C4CC4)c3c2OC)CCC1(C)N (configuration not stated)
2. CO/N=C1\CN(c2nc3c(cc2F)c(=O)c(C(=O)O)cn3C2CC2)CC1CN (configuration not stated)

[reply]
1: 0.5; 2: 0.25

###

Tested on: Klebsiella pneumoniae
Assay: Antibacterial activity against 10^4 CFU Klebsiella pneumoniae 09-22 after 18 hrs by CLSI agar dilution method
Format: functional
Conditions: 09-22, 18 h
Would you mind telling me the reported MIC of each entry?

[[record]]
compound = "CO/N=C1\\CN(c2c(F)cc3c(=O)c(C(=O)O)cn(C4CC4)c3c2OC(F)F)CCC1(C)N (centres undefined)"
endpoint_result = "2 µg/mL"

[[record]]
compound = "CO/N=C1\\CN(c2nc3c(cc2F)c(=O)c(C(=O)O)cn3-c2ccc(F)cc2F)CCC1(C)N (centres undefined)"
endpoint_result = "64 µg/mL"


Please give MIC for each item listed below.
1. CO/N=C1\CN(c2c(F)cc3c(=O)c(C(=O)O)cn(C4CC4)c3c2OC)CCC1(C)N (centres undefined)
2. CO/N=C1\CN(c2c(F)cc3c(=O)c(C(=O)O)cn(CCF)c3c2F)CCC1(C)N (centres undefined)
3. CCO/N=C1\CN(c2c(F)cc3c(=O)c(C(=O)O)cn(CC)c3c2F)CCC1(C)N (centres undefined)
4. CCO/N=C1\CN(c2nc3c(cc2F)c(=O)c(C(=O)O)cn3C2CC2)CCC1(C)N (centres undefined)

[reply]
> 128 µg/mL
16 µg/mL
> 128 µg/mL
> 128 µg/mL

# per-item lookup of MIC; items listed below
1. CCO/N=C1\CN(c2nc3c(cc2F)c(=O)c(C(=O)O)cn3-c2ccc(F)cc2F)CCC1(C)N (centres undefined)
2. CCO/N=C1\CN(c2c(F)cc3c(=O)c(C(=O)O)cn(C4CC4)c3c2OC)CCC1(C)N (centres undefined)
3. CCO/N=C1\CN(c2c(F)cc3c(=O)c(C(=O)O)cn(C4CC4)c3c2OC(F)F)CCC1(C)N (centres undefined)

[reply]
1. 32 µg/mL
2. 1 µg/mL
3. 16 µg/mL

Data credit: ChEMBL document CHEMBL1781961
